Assay: chemical genetic growth profiling, strain panel (AID 1159580);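 also: tested at 20 µM; growth read once vehicle control cultures reached saturation at 30 °C; 1 = growth at the plate median or of vehicle wells; lower values mean less growth of the strain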
Conditions: S. cerevisiae deletion strains, growth OD, locus YCL011C, strain gbp2
The whole screen tested about 5,500 compounds, of which about 2,000 (36%) were called active. Not shown: some 18% with an inconclusive outcome. Rule as the data show it: active = normalized growth mostly below about 0.91 (no sharp cut-off); inconclusive = no clear call, values can overlap the other calls; inactive = mostly above about 0.92. The list shows a part of the results.
Choose one outcome from this list and give only that: 1.0 = active, 0.0 = inactive

Solved entries:
compound | group
COc1cc(OC)c2ccc(=O)oc2c1 | 0.0
CC(C)c1c(O)c(-c2cc3c(c(C(C)C)c2O)CCC2C(C)(C)CCC[C@]32C)cc2c1CCC1C(C)(C)CCC[C@]21C (stereo partly drawn) | 0.0
CC1CCC2(OC1)OC1CC3C4CC[C@H]5C[C@@H](O)CC[C@]5(C)C4CC(=O)[C@]3(C)C1C2C (stereo partly drawn) | 0.0
COc1cc2occc2c2oc(=O)ccc12 | 0.0
CN[C@@H]1[C@@H](O)C(OC2[C@@H](N)C[C@@H](N)[C@H](O[C@H]3O[C@H](C(C)O)[C@@H](O)[C@H](O)[C@H]3N)[C@H]2O)OC[C@]1(C)O (stereo partly drawn) | 0.0
CCN(Cc1ccncc1)C(=O)C(CO)c1ccccc1 (stereo not drawn) | 0.0
C[N+](C)(C)CC(O)CC(=O)O (stereo not drawn) | 0.0
CC(=O)O[C@]1(C(C)=O)CCC2C3C=C(Cl)C4=CC(=O)[C@@H]5C[C@@H]5[C@]4(C)C3CC[C@@]21C (stereo partly drawn) | 0.0

GET /call?item= C[C@@H]1CC[C@@]2(OC1)OC1CC3C4CC=C5C[C@@H](O)CC[C@]5(C)C4CC[C@]3(C)C1[C@@H]2C (stereo partly drawn) returns the recorded outcome of this test.
0.0

* * *

Assay: chemical genetic growth profiling, strain panel (AID 1159580);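 also: tested at 20 µM; growth read once vehicle control cultures reached saturation at 30 °C; 1 = growth at the plate median or of vehicle wells; lower values mean less growth of the strain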
Settings: S. cerevisiae deletion strains, growth OD, locus YJL115W, strain asf1, active compounds read low
The campaign covered roughly 5,500 compounds. About 2,000 (36%) were called active. About 18% were inconclusive and are not listed. The list shows a part of the results.
Entries and their measured normalized growth follow.
Lab note: record just the number, no unit beside it.

Solved entries (count: 3):
compound | test-result
CC1CC[C@@]2(OC1)O[C@H]1CC3C4CC[C@@H]5C[C@@H](O)CC[C@]5(C)C4CC[C@]3(C)[C@H]1[C@@H]2C (stereo partly specified) | 1.03
O=c1c(O)c(-c2ccc(O)cc2O)oc2cc(O)cc(O)c12 | 0.994
COc1cccc2c(C)cc(=O)[nH]c12 | 0.981

Returns the measured normalized growth for the input compound. Input: C[C@@H]1CC[C@@]2(OC1)OC1CC3C4CC=C5C[C@@H](O)CC[C@]5(C)C4CC[C@]3(C)C1[C@@H]2C (stereo partly specified)
0.997

Note, next up: C[C@]12CCC3c4ccc(O)cc4CCC3C1CC[C@@H]2O (stereo partly specified)
1.02

Also need `CCc1cc(C(N)=S)ccn1` , thanks.
1.01

And the next one, C=C1CCC2(OC1)OC1CC3C4CC=C5CC(O)CC(O)C5(C)C4CCC3(C)C1C2C (stereo unspecified) ?
1.01

Could you do the same for CCCCCCC(C)OC(=O)COc1ccc(Cl)cc1Cl (stereo unspecified) , please?
0.989

Another compound to look at: `COC1=CC(=O)C(O)=C/C1=C\C=C\c1ccccc1`
0.0766

Again, but for CC(CC(O)C1OC1(C)C)[C@@H]1CCC2(C)C3=CCC4C(C)(C)C(=O)CCC4(C)C3CC[C@@]12C (stereo partly specified)
0.992

Lookup C[C@@H]1CC[C@@]2(OC1)O[C@H]1CC3C4CC[C@H]5C[C@@H](O)CC[C@]5(C)C4CC[C@]3(C)[C@H]1[C@@H]2C (stereo partly specified)
0.976

Also need O=C1C=C2C(=CCOC2O)O1 (stereo unspecified) , thanks.
0.961

Proceed to `CCCCCc1c2c(cc(O)c1C(=O)O)OC(=O)c1c(cc(OC)cc1C(=O)CCCC)O2`
0.982

Further, for CC(C1OC(C)(C)C(O)C1O)[C@@H]1CC[C@]2(C)C3=CCC4C(C)(C)C(=O)CC[C@]4(C)C3CC[C@@]12C (stereo partly specified) ?
0.985

Also, `CCCCCC(=O)Cc1cc(O)cc(O)c1C(=O)Oc1cc(CC(=O)CCCCC)c(C(=O)O)c(OC)c1` please.
0.922

Repeat for the following compound: NS(=O)(=O)c1cc(C2(O)NC(=O)c3ccccc32)ccc1Cl (stereo unspecified)
0.983

How about this compound: CC1CC[C@]2(NC1)O[C@H]1CC3C4CC[C@H]5C[C@@H](O)CC[C@]5(C)C4CC[C@]3(C)[C@H]1[C@@H]2C (stereo partly specified)
0.113

Can you check CC(=O)OC(C)C[N+](C)(C)C (stereo unspecified) next?
0.995

Here is the next compound: `CC[n+]1c(-c2ccccc2)c2cc(N)ccc2c2ccc(N)cc21`
0.926

Cool, now `COC1=CC(=O)C(C(=O)c2ccccc2)=CC1=O`
0.956

Continue with C[N+](C)(C)CC(O)CC(=O)O (stereo unspecified)
0.977
